B1: library; a variant is named by its letters at N, in order (parent)
chain: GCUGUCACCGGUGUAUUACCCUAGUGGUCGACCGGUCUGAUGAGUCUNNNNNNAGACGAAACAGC

- Variants of: B1
- procedure-summary: normalized RNA/DNA level with ligand (relative to sTRSVctl = 100) (log10 (% of sTRSVctl)); ligand: hypoxanthine (xanthine aptamer); higher = less ribozyme self-cleavage, higher mRNA level
- particulars: ligand concentration (+) RNA-Seq: 5 mM, HEK293T, reporter: mCherry (pCS4076), ligand present: yes
The variants listed here are annotated with their normalized RNA/DNA level with ligand (log10).

Solved entries:
In [3]: df
Out[3]:
   variant_key  observed
0       CACGUU      1.96
1       GCAGGG      1.88
2       AGGACU      1.94

# query: normalized RNA/DNA level with ligand (log10) of entry CACUCC
1.93

# query: normalized RNA/DNA level with ligand (log10) of entry GUGCGG
1.88
